Origin of measurements: the supplement of paper PMC8728848

# Assay system: Gal(b1-3)GlcNAc(b1-3)Gal(b1-4)GlcNAc
# Assay details: glycan array binding signal (z-score within array); higher = stronger binding
# Particulars: glycan notation: IUPAC condensed, linker removed
This is one part of a sample in which the strongest signals are shown more often than they occur.
Endpoint name: glycan array binding signal (z-score)
Just the number, please.

Consider the worked cases shown below.
[
  {
    "Binder": "GSL-I (Griffonia simplicifolia) (protein) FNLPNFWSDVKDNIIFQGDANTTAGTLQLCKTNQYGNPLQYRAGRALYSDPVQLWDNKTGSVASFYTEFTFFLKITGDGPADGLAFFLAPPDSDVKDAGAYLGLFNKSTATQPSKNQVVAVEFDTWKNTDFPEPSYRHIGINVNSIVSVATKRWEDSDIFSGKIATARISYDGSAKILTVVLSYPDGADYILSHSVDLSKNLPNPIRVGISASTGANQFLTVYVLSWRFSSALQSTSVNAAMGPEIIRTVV",
    "Quantitative result": -0.226
  },
  {
    "Binder": "Gal 2 (Homo sapiens), P05162 (protein) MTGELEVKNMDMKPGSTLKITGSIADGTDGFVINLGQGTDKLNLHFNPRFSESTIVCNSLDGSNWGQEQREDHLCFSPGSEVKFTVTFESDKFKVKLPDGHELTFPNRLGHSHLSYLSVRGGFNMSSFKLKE",
    "Quantitative result": 0.837
  }
]

Give me measured glycan array binding signal (z-score), please, for this binder: Agalectin (Anopheles gambiae) (protein) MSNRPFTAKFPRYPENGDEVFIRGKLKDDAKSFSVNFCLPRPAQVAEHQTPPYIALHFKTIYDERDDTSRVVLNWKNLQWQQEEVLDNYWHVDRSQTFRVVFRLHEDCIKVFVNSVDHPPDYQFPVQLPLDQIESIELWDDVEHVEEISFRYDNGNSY
-0.854
